Molecular target: recombinant human 5-HT2B receptor (Homo sapiens, UniProt P41595)
Construct: expressed in transfected cells; host or cells: CHO-K1
Sequence (P41595 whole entry): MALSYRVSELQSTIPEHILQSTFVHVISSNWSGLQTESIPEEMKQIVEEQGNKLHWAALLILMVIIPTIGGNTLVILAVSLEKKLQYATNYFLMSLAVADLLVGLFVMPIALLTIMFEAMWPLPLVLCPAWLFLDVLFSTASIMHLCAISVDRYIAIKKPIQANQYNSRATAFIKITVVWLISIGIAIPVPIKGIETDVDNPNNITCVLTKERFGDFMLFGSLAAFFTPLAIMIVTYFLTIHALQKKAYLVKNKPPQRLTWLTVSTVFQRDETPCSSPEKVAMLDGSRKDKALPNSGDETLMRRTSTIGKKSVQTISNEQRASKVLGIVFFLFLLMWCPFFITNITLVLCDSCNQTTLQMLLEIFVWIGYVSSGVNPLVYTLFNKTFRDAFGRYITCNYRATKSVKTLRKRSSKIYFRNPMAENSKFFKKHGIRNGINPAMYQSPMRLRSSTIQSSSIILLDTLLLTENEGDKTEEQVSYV
Experiment: radioligand binding to serotonin receptor 5-HT2B ([3H] Lysergic acid diethylamide)
Conditions: read-out: IC50 5-HT2B
observation type: IC50 (µM)
State just the number; it will be interpreted in µM.

Study these solved cases before continuing.
- CN1CCc2c(c3ccccc3n2Cc2ccccc2)C1.Cl [1.9(1)•HCl]: 0.106
- Cc1ccc(S(=O)(=O)n2c3c(c4cc(C)ccc42)CN(C)CCC3)cc1.Cl [1.8.1(3)•HCl]: 0.319

Let us move to another entry and its IC50.
Field IC50 (entry Cc1ccc2c(c1)c1c(n2CCc2ccccn2)CCN(C)C1.Cl.Cl [1.1.2(2-3)•2HCl] ) reads 1.02

###

So I've got IC50 readings for human α1D receptor (Homo sapiens), take a look.
State just the number; it will be interpreted in nM.

Study these solved cases before continuing.
• Cc1ccc2c(c1)c1c(n2CCc2ccc(C)nc2)CCN(C)C1.Cl.Cl [1.1.2(4-2)•2HCl] = 239
• CN1CCc2c(c3ccccc3n2Cc2ccccc2)C1 [1.9(1)•½NDSA] = 1330

Let us move to another entry and its IC50.
IC50 value, target or system human α1D receptor (Homo sapiens), for Cc1ccc2c(c1)c1c(n2CCc2ccccn2)CCN(C)C1.Cl.Cl [1.1.2(2-3)•2HCl] : 282

###

Tested on: imidazoline receptor I2
Experiment: radioligand binding to imidazoline receptor I2 ([3H] Idazoxan)
Design: species or system rat
Details: 10 μM ligand
observation type: imidazoline I2 receptor % inhibition
Show the value, then the unit it is measured in.

Study these solved cases before continuing.
* Cc1ccc2c(c1)c1c(n2CCc2ccccn2)CCN(C)C1.Cl.Cl [1.1.2(2-3)•2HCl] | 88%
* Cc1ccc2c(c1)c1c(n2CCc2ccccn2)CCCN(C)C1 | 80%
* Cc1ccc2c(c1)c1c(n2CCc2ccc(C)nc2)CCN(C)C1.Cl.Cl [1.1.2(4-2)•2HCl] | 98%
* Cc1ccc2c(c1)[C@@H]1CN(C)CCC[C@@H]1N2CCc1ccc(C)nc1.Cl.Cl.Cl (relative stereo) [1.6.1(2)•3HCl] | 80%
* Cc1ccc(S(=O)(=O)n2c3c(c4cc(C)ccc42)CN(C)CCC3)cc1.Cl [1.8.1(3)•HCl] | 17%

Field imidazoline I2 receptor % inhibition (entry Cc1ccc2c(c1)c1c(n2CCc2ccccc2)CCN(C)C1.Cl [1.1.2(1-2)•HCl] ) reads 93%

###

Documented nH 5-HT6 across a set of molecules
Biological target: recombinant human 5-HT6 receptor (Homo sapiens, UniProt P50406)
Construct: expressed in transfected cells; host or cells: HeLa
Sequence (P50406 whole entry): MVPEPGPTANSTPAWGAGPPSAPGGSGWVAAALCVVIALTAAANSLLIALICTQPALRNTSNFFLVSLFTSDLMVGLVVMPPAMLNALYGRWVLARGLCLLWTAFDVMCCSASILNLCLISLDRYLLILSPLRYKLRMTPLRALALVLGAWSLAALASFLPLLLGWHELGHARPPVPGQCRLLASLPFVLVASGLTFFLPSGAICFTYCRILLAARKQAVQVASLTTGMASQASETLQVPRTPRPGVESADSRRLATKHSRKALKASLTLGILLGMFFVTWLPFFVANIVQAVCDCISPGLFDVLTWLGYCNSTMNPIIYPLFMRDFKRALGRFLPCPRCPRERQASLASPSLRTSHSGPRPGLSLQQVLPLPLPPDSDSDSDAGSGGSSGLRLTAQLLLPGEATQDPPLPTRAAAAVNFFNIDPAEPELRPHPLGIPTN
Experiment: radioligand binding to serotonin receptor 5-HT6 ([3H] Lysergic acid diethylamide)
Description: Mol. Pharmacol. 43:320-327, 1993]. […] Methiothepin is used as positive control.
# answer = number (no unit)

Study these solved cases before continuing.
- CN1CCc2c(c3ccccc3n2Cc2ccccc2)C1.Cl [1.9(1)•HCl]: 1.04
- Cc1ccc(S(=O)(=O)n2c3c(c4cc(C)ccc42)CN(C)CCC3)cc1.Cl [1.8.1(3)•HCl]: 1.07
- CN1CCc2c(c3ccccc3n2Cc2ccccc2)C1 [1.9(1)•½NDSA]: 1.07

Field nH 5-HT6 (entry Cc1ccc2c(c1)c1c(n2CCc2ccccn2)CCN(C)C1.Cl.Cl [1.1.2(2-3)•2HCl] ) reads 0.744
